Molecular target: T1, EsCas13d, nuclease-dead (Eubacterium siraeum, UniProt B0MS50, R295A;H300A;R849A;H854A)
T1 sequence: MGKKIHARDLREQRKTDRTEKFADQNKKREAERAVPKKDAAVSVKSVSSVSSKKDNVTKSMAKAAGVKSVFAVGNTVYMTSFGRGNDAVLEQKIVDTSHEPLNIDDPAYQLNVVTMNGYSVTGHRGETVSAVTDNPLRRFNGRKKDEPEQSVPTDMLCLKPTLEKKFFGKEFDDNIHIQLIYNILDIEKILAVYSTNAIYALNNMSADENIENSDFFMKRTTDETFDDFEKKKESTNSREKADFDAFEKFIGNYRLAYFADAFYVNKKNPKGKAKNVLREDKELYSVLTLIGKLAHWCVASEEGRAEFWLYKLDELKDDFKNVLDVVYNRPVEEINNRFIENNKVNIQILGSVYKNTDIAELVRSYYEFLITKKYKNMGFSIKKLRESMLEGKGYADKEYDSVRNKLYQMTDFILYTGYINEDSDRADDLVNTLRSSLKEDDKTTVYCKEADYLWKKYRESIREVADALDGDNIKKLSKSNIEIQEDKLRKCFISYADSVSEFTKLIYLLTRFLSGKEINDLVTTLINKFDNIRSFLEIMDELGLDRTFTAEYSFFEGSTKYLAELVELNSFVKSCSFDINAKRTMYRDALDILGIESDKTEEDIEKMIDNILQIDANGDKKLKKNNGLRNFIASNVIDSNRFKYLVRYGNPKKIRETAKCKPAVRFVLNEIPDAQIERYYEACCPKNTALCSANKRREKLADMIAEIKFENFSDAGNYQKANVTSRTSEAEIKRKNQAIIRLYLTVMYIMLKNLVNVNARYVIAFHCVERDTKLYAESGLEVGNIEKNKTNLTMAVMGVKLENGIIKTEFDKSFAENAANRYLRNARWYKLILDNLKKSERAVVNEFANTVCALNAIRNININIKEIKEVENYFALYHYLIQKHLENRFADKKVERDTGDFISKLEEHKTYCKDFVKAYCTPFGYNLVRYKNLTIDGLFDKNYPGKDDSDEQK
Experiment: crRNA (strand 1, pre-loaded); Mg2+; 40 mM Tris-HCl pH 7.5, 150 mM NaCl, 6 mM MgCl2, 1 mM DTT, 0.1% Tween-20, 0.2 mg/ml BSA; 25 C; 10 min per concentration, then washed
Conditions: tags: His6-TwinStrep-SUMO cleaved; N-terminal SNAP kept (SNAP-Surface 488); label: 3' end held by stalled T7 RNA polymerase
assay-readout: Kd (nM)
Hi! Could you send only the number? It should be in nM, unit omitted.

Here's what some known entries look like.
target 2 MT 5'PFS UGA 3'PFS AAG (mixed) RNA 1: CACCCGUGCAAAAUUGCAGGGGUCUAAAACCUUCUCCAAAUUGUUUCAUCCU RNA 2: GGGAAUGGAUCCACAUCUACGAAUUCUGAAGGAUGAAACAAUUUGGAGAAGAAGAGAUCGGAAGAGCACACGU :: 7.4
target 1 U3C,U8A (mixed) RNA 1: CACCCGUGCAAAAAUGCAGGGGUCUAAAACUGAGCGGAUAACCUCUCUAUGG RNA 2: GGGAAUGGAUCCACAUCUACGAAUUCGUACCAUAGAGAGGUUAACCGCCCACCGAGAUCGGAAGAGCACACGU :: 18.7
target 1 MT 5'PFS AAG 3'PFS CUC (mixed) RNA 1: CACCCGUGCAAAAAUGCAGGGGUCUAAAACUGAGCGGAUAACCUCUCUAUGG RNA 2: GGGAAUGGAUCCACAUCUACGAAUUCAAGCCAUAGAGAGGUUAUCCGCUCACUCAGAUCGGAAGAGCACACGU :: 38.5
target 1 insU 3' of 5,insG 3' of 1 (mixed) RNA 1: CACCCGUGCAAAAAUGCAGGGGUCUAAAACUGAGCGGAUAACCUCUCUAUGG RNA 2: GGGAAUGGAUCCACAUCUACGAAUUCGUACCAUAGAGAGGUUAUCCGUCUCAGCCGAGAUCGGAAGAGCACACGU :: 7.4
target 2 MT 5'PFS ACG 3'PFS CCA (mixed) RNA 1: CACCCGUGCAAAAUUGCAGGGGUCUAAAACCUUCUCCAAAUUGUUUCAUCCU RNA 2: GGGAAUGGAUCCACAUCUACGAAUUCACGAGGAUGAAACAAUUUGGAGAAGCCAAGAUCGGAAGAGCACACGU :: 19

So for target 1 insC 3' of 13,insG 3' of 7 (mixed) RNA 1: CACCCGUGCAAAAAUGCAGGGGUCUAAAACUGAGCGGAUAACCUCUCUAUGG RNA 2: GGGAAUGGAUCCACAUCUACGAAUUCGUACCAUAGAGAGCGUUAUCGCGCUCACCGAGAUCGGAAGAGCACACGU , the logged Kd turned out to be 16.1

So for target 1 insA 3' of 19,insG 3' of 3 (mixed) RNA 1: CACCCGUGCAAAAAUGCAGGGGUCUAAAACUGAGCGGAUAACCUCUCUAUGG RNA 2: GGGAAUGGAUCCACAUCUACGAAUUCGUACCAUAAGAGAGGUUAUCCGCUGCACCGAGAUCGGAAGAGCACACGU , the logged Kd turned out to be 13.2

So for target 1 insG 3' of 10,insG 3' of 9 (mixed) RNA 1: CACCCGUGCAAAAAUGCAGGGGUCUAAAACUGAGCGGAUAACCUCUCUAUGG RNA 2: GGGAAUGGAUCCACAUCUACGAAUUCGUACCAUAGAGAGGUUGAGUCCGCUCACCGAGAUCGGAAGAGCACACGU , the logged Kd turned out to be 8.8
